- Test system: LNCaP
- assayRemarks: WST-1 cell proliferation assay on LNCaP
- Type: cell-based
- conditionLabel: Homo sapiens, 72 h, percent of untreated control cells, read-out: Remaining cell proliferation (%) LNCaP
- Experimental: The functional activity of the example compounds in comparison to galiellalactone was evaluated using a WST-1 proliferation assay (J. Biol. Chem. 2014, 289:15969-15978) on DU145, LNCaP or IL-6 stimulated LNCaP. The cells were cultured in 96-well plates (2000 cells/well in 200 μl of medium) and allowed to set for 24 h. […] The absorbance of each well was measured using a scanning multi-well spectrophotometer, ELISA reader at a wavelength of 450 nm and reference wavelength of 690 nm. […]
Collected activity at 10 µM values appear next to each entry.
Output spec: scalar in %, unitless text.

Reference set, count: 2
- molecule: "CC1C=C2C(=O)OC3CCC(C1)C23OCc1ccc(Oc2ccccc2)nc1 (stereo in doubt)"
  u: "%"
  activity at 10 µM: 86
- molecule: "COc1ccnc(COC23C4=CC(C)CC2CCC3OC4=O)c1 (stereo in doubt)"
  u: "%"
  activity at 10 µM: 86

Qu. // fetch activity at 10 µM given entry COC(=O)c1cccc(COC23C4=CC(C)CC2CCC3OC4=O)n1 (stereo in doubt)
Ans. 65.6
